Examples of molecules with documented Vd follow.
Assay: Volume of distribution in rat
Format: ADME, organism-based
Conditions: in vivo, read-out: Vdss
Your answer is read as L/kg, so omit the unit and give the number.

Use the examples below as a reference point.
>  <Molecule>
COc1ccc(C(CC(=O)O)Cc2csc(CCCc3ccc4c(n3)NCCC4)n2)cn1 (configuration not stated)

>  <Outcome Measure>
Vd

>  <Measurement>
2.95

$$$$
>  <Molecule>
COc1cc(OC)cc(C(CC(=O)O)Cc2csc(CCCc3ccc4c(n3)NCCC4)n2)c1 (configuration not stated)

>  <Outcome Measure>
Vd

>  <Measurement>
2.04

$$$$
>  <Molecule>
O=C(O)CC(Cc1nc(CCCc2ccc3c(n2)NCCC3)no1)c1ccc2c(c1)OCO2 (racemic)

>  <Outcome Measure>
Vd

>  <Measurement>
0.733

$$$$
>  <Molecule>
COCc1ncc(C(CC(=O)O)Cc2csc(CCCc3ccc4c(n3)NCCC4)n2)s1 (configuration not stated)

>  <Outcome Measure>
Vd

>  <Measurement>
2.68

$$$$

Per the records, this molecule ( O=C(O)CC(Cc1csc(CCCc2ccc3c(n2)NCCC3)n1)c1ccc2c(c1)OCO2 (configuration not stated) ) has Vd equal to 0.897

Sure, the documented Vd for O=C(O)CC(Cc1csc(CCCc2ccc3c(n2)NCCC3)n1)c1cnc(C2CC2)s1 (configuration not stated) is 1.02

Please fill in: Vd reported for COc1ccc(C(CC(=O)O)Cc2csc(CCCc3ccc4c(n3)NCCC4)n2)cc1F (configuration not stated) = 1.29
